# measured-target: T1, BoNT/D (Clostridium botulinum, UniProt P19321 2-1276)
# T1 sequence: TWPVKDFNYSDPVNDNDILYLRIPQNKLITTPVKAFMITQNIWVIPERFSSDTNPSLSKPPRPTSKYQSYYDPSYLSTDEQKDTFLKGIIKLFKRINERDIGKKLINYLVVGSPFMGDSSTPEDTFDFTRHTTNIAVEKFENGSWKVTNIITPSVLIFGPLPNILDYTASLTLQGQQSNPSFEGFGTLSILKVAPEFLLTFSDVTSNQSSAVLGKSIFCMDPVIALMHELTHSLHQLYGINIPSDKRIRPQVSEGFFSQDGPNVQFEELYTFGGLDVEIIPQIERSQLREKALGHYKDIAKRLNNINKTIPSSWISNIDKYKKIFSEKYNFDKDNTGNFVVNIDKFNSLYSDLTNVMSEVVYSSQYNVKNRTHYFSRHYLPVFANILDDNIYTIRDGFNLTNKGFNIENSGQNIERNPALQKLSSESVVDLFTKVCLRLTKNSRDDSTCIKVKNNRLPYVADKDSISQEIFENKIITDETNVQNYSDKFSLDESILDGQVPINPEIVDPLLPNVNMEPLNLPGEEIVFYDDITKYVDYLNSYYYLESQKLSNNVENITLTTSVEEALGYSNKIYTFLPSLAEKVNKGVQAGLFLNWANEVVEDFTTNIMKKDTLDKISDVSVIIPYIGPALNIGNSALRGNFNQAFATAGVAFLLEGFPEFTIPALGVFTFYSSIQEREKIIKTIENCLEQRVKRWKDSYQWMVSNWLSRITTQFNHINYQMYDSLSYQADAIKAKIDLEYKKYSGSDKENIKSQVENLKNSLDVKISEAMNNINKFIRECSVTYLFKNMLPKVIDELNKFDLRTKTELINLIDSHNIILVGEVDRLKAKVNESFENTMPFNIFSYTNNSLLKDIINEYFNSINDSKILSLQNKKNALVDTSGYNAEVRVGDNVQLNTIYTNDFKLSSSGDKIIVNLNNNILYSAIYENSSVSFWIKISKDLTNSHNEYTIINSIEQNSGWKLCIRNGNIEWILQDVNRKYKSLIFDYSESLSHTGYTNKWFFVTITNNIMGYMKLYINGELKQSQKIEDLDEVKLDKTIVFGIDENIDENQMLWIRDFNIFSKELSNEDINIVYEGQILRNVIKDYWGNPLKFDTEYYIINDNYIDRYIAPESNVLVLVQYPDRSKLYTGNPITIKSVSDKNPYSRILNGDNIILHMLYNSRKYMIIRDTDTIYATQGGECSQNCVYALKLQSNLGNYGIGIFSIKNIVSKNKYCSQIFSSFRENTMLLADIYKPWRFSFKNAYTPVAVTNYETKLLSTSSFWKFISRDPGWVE
# assay-protocol: yeast scFv FACS

binder	binding result
8DC3 scFv (scFv, V domains shown, human) VH: QVQLVQSGGGLVKPGGSLRLSCAASGFTFSSHSMNWVRQAPGKGLEWVSSISSSSSYIYYADSVKGRFTISRDNSKNSLYLQLNSLRAEDTAVYYCARGDHDFRSGYYGMDVWGQGTMVTVSS VL: AELTQDPAVSVALGQTVRITCQGDSLRNYYASWYQQKPGQAPVLVIYGKNIRPSGIPDRFSGSSSGNTASLTITGAQAEDEADYYCNSRDSNGNHYVFGTGTKVTVL	binds
